Source listed as patent US12692274B2.

test system: NQO1 activation in BEAS-2B cells; test: BEAS-2B cellular MTT assay of NQO1 activation, 0% HSA; type: cell-based; conditions: Homo sapiens, serum free, read-out: BEAS EC50 (nM) serum free
quantity.measured: log10(EC50) (log10 of the value in nM)

| compound | experimental.system | log10(EC50) |
| --- | --- | --- |
| Cc1c2ccc3c1nnn3CCCCCCOc1ccc(cc1)C(=O)N1CCc3ccc(cc3C1)[C@H]2[C@H](C)C(=O)O | NQO1 activation in BEAS-2B cells | 2.05 |
| O=C(O)CC1c2ccc3c(c2)CN(CC3)C(=O)c2ccc(cc2)OCCCCCCn2nnc3cc1ccc32 (stereo not drawn) | NQO1 activation in BEAS-2B cells | 2.61 |
| Cc1cc2ccc1C(=O)N1CCc3ccc(cc3C1)C(CC(=O)O)c1ccc(nc1)OCCCCCCO2 (stereo not drawn) | NQO1 activation in BEAS-2B cells | 1.91 |
| Cc1cc2ccc1C(=O)N1CCc3ccc(cc3C1)C(CC(=O)O)c1ccc(nc1)OCCCCO2 (stereo not drawn) | NQO1 activation in BEAS-2B cells | 2.67 |
| Cc1cc2ncc1C(CC(=O)O)c1ccc3c(c1)CN(CC3)C(=O)c1ccc(cc1)CCCCCO2 (stereo not drawn) | NQO1 activation in BEAS-2B cells | 0.51 |
| Cc1c2ccc3c1nnn3CCCOCCOc1cc(F)c(c(F)c1)C(=O)N1CCc3ccc(cc3C1)[C@@H]2[C@@H](C)C(=O)O | NQO1 activation in BEAS-2B cells | 1.01 |
| Cc1cc2ccc1C(=O)N1CCc3ccc(cc3C1)C(CC(=O)O)c1ccc(nc1)OCCCCC2 (stereo not drawn) | NQO1 activation in BEAS-2B cells | 1.22 |
| Cc1c2cnc3c1nnn3CCCCCCOc1ccc(c(F)c1)C(=O)N1CCc3ccc(cc3C1)C2CC(=O)O (stereo not drawn) | NQO1 activation in BEAS-2B cells | 1.24 |
| Cc1c2ccc3c1nnn3CCCCCCc1ccc(c(F)c1)C(=O)N1CCc3ccc(cc3C1)C2CC(=O)O (stereo not drawn) | NQO1 activation in BEAS-2B cells | 0.40 |
| O=C(O)CC1c2ccc3c(c2)CN(CC3)C(=O)c2ccc(cc2F)OCCCCCCn2nnc3c(Cl)c1ccc32 (stereo not drawn) | NQO1 activation in BEAS-2B cells | 1.21 |
| C[C@H](C(=O)O)[C@@H]1c2ccc(nc2)OCCCCCc2cc(F)c(c(F)c2)C(=O)N2CCc3ccc1cc3C2 | NQO1 activation in BEAS-2B cells | -0.22 |
| O=C(O)CC1c2ccc3c(c2)CN(CC3)C(=O)c2ccc(cn2)CCCCCCn2nnc3c(Cl)c1ccc32 (stereo not drawn) | NQO1 activation in BEAS-2B cells | 2.23 |
| Cc1c2ccc3c1nnn3CCCCCOc1ccc3ccc(cc3c1)C(=O)N1CCc3ccc(cc3C1)C2CC(=O)O (stereo not drawn) | NQO1 activation in BEAS-2B cells | 1.71 |
| O=C(O)CC1c2ccc3c(c2)CN(CC3)C(=O)c2ccc(cc2)CCCCCn2nnc3cc1ccc32 (stereo not drawn) | NQO1 activation in BEAS-2B cells | 1.95 |
| Cc1c2ccc3c1nnn3CCCCCOc1ccc(c(F)c1)C(=O)N1CCc3ccc(cc3C1)[C@H]2CC(=O)O | NQO1 activation in BEAS-2B cells | 1.31 |
